Reference source for all entries: the RNAGym collection of RNA variant scans (doi:10.1093/nar/gkz1192)

B1: CPEB3 Ribozyme (parent)
chain: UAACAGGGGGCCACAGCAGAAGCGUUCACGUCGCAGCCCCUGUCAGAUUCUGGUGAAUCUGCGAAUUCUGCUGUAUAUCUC

# Variants of: B1
# assayDetails: self-cleavage, relative activity (ratio to wild type); higher = more cleavage; in vitro, sequencing
Rule: self-cleavage under 0.4 gives 0 (no), otherwise 1 (yes).

mutantName: U31G U80C
group: 1 (yes)

mutantName: C59A A65U
group: 0 (no)

mutantName: U60C C71U
group: 0 (no)

mutantName: C14U U25A
group: 1 (yes)

mutantName: A18G U41C
group: 1 (yes)

mutantName: G30C U72A
group: 0 (no)

mutantName: C14G A65C
group: 0 (no)

mutantName: G22A A75U
group: 0 (no)

mutantName: A20U U60G
group: 0 (no)

mutantName: U51C A56C
group: 0 (no)

mutantName: C17U U54C
group: 1 (yes)

mutantName: U31G U67A
group: 0 (no)

mutantName: A3C A35U
group: 1 (yes)

mutantName: U69C U72C
group: 0 (no)

mutantName: C23A U43A
group: 0 (no)

mutantName: A35G G55C
group: 1 (yes)

mutantName: A5U A57U
group: 1 (yes)

mutantName: A35U U54G
group: 1 (yes)

mutantName: U69C U80A
group: 1 (yes)

mutantName: C23U G55A
group: 0 (no)

mutantName: A20U U78C
group: 0 (no)

mutantName: A47U G53U
group: 1 (yes)

mutantName: G52U G61A
group: 1 (yes)

mutantName: A18U U58C
group: 0 (no)

mutantName: U25A A45G
group: 0 (no)

mutantName: C23A G52U
group: 0 (no)

mutantName: U58C C59U
group: 0 (no)

mutantName: G33A U78A
group: 0 (no)

mutantName: A18C G30A
group: 0 (no)

mutantName: U49C A57U
group: 0 (no)

mutantName: U26A A57U
group: 1 (yes)

mutantName: A21U C32A
group: 0 (no)

mutantName: A13G G73C
group: 1 (yes)

mutantName: U58A A75G
group: 1 (yes)

mutantName: G24A U49C
group: 0 (no)

mutantName: A3G G9U
group: 0 (no)

mutantName: C40U A57G
group: 0 (no)

mutantName: U48C U58C
group: 0 (no)

mutantName: A28G U48G
group: 1 (yes)

mutantName: G19U G61C
group: 0 (no)

mutantName: A35U G63C
group: 1 (yes)

mutantName: G9U U41C
group: 0 (no)

mutantName: A21G U80A
group: 1 (yes)

mutantName: C34G C59A
group: 0 (no)

mutantName: C40U C44A
group: 1 (yes)

mutantName: G16C G36U
group: 0 (no)

mutantName: A3U U58C
group: 1 (yes)

mutantName: U48A A64U
group: 0 (no)

mutantName: A2U A56C
group: 1 (yes)

mutantName: U31G A45G
group: 0 (no)

mutantName: G52C G70U
group: 1 (yes)

mutantName: U41A A47C
group: 0 (no)

mutantName: G8U G53A
group: 0 (no)

mutantName: U49G U78C
group: 1 (yes)

mutantName: A3G A18U
group: 1 (yes)

mutantName: C4G G36U
group: 0 (no)

mutantName: A18G C39U
group: 1 (yes)

mutantName: G9A U58C
group: 0 (no)

mutantName: C11G G42U
group: 0 (no)

mutantName: C23A U66A
group: 0 (no)

mutantName: U43A A57G
group: 1 (yes)

mutantName: U49C C81A
group: 1 (yes)

mutantName: A15U G22C
group: 0 (no)

mutantName: C23A A35G
group: 0 (no)

mutantName: U54A U72A
group: 1 (yes)

mutantName: A13G U78A
group: 1 (yes)

mutantName: A21G G46U
group: 0 (no)

mutantName: A28U G73U
group: 1 (yes)

mutantName: A15U U51G
group: 1 (yes)

mutantName: C14U C40A
group: 0 (no)

mutantName: A5U G9A
group: 1 (yes)

mutantName: U41G U60C
group: 0 (no)

mutantName: C34A A45C
group: 0 (no)

mutantName: U48C A65U
group: 0 (no)

mutantName: A3U U80C
group: 1 (yes)

mutantName: U25G C50U
group: 0 (no)

mutantName: U26A U54C
group: 1 (yes)

mutantName: G10A U26G
group: 0 (no)

mutantName: U48G U49A
group: 1 (yes)

mutantName: A35G G61U
group: 1 (yes)

mutantName: A13U U80A
group: 1 (yes)

mutantName: G9U G52U
group: 0 (no)

mutantName: G33C U60C
group: 0 (no)

mutantName: C29U U54A
group: 1 (yes)

mutantName: A28G U80A
group: 1 (yes)

mutantName: A13C U31C
group: 1 (yes)

mutantName: U31C A56G
group: 1 (yes)
